Hello, the source for this data is PubChem BioAssay (NCI), in case you need it.

tested on: ACHN renal; test: NCI tumour cell line growth inhibition, 48 h
Would you mind labelling by TGI? At or over 20 µM is fulfilled, under is not fulfilled.

>  <Molecule>
COc1ccc(S(=O)(=O)NCCNc2nccc(-c3c(-c4ccccc4)nc4sccn34)n2)cc1

>  <Discrete Label>
fulfilled

$$$$
>  <Molecule>
COc1cc(C2c3cc4c(cc3[C@@H](Nc3cccc(O)c3)C3COC(=O)[C@H]23)OCO4)cc(OC)c1O (stereo partly specified)

>  <Discrete Label>
not fulfilled

$$$$
>  <Molecule>
COc1cc(C(=O)N/N=C/c2cccc([N+](=O)[O-])c2)cc(OC)c1OC

>  <Discrete Label>
fulfilled

$$$$
>  <Molecule>
Cc1cc2c(cc1Cl)SC1=NN(C)C(c3ccccc3O)N1S2(=O)=O (stereo unspecified)

>  <Discrete Label>
fulfilled

$$$$
>  <Molecule>
O=c1c2cc(F)ccc2sc2c(NCCCN3CCCC3)nc3ccccc3c12

>  <Discrete Label>
not fulfilled

$$$$
>  <Molecule>
O=C1O/C(=C\c2ccc(O)cc2)C(c2ccc(O)c(Cl)c2)=C1Br

>  <Discrete Label>
fulfilled

$$$$
>  <Molecule>
Cc1ccc(OCCCCCCNCCO)c(C)c1

>  <Discrete Label>
fulfilled

$$$$
>  <Molecule>
O=C(NCCCCl)c1c(O)c2ccccc2[nH]c1=O

>  <Discrete Label>
fulfilled

$$$$
>  <Molecule>
C=CCOn1c(C=C)nc2c(C)cccc21

>  <Discrete Label>
not fulfilled

$$$$
>  <Molecule>
OCCCCC#Cc1ccccc1C#Cc1cnccn1

>  <Discrete Label>
fulfilled

$$$$

* * *

system: NCI-H522 lung; assay: NCI tumour cell line growth inhibition, 48 h
Mark 0 for TGI values under 7 µM, and 1 for everything at or above.

>  <Compound>
c1ccc(COc2ncccc2C2SCCCS2)cc1

>  <Discrete Label>
1

$$$$
>  <Compound>
CCCCCCCCC(=O)NCCCNCCCNC(=O)CCCCCCCC

>  <Discrete Label>
1

$$$$
>  <Compound>
CCCCCCCC(CC(=O)O)OC(=O)CC(CCCCCCC)OC1OC(C)C(O)C(O)C1OC1OC(C)C(O)C(O)C1O (stereo unspecified)

>  <Discrete Label>
1

$$$$
>  <Compound>
Clc1ncc(C(Cl)(Cl)Cl)nc1-c1ccccc1

>  <Discrete Label>
0

$$$$
>  <Compound>
COC(=O)C1CCC(=NC2c3ccccc3-c3ccccc32)N1 (stereo unspecified)

>  <Discrete Label>
1

$$$$
>  <Compound>
O=[N+]([O-])c1cccc(-c2ncc(-c3ccc(Cl)cc3Cl)[nH]2)c1

>  <Discrete Label>
1

$$$$
>  <Compound>
CCOC(=N)CC(=O)NC(C)c1ccccc1 (stereo unspecified)

>  <Discrete Label>
1

$$$$
>  <Compound>
Cn1cc(-c2nn3cc(-c4cccs4)nc3s2)c2cc(F)ccc21

>  <Discrete Label>
1

$$$$
>  <Compound>
CCSc1nc(N)c2cnn(C)c2n1

>  <Discrete Label>
1

$$$$
>  <Compound>
COC(=O)CNC(=O)/C=C/[C@H](O[Si](C)(C)C(C)(C)C)[C@H](/C=C/C(=O)NCC(=O)OC)O[Si](C)(C)C(C)(C)C

>  <Discrete Label>
1

$$$$
>  <Compound>
COc1ccc(N(Cc2cc(OC)c(OC)c(OC)c2)C2OC(=O)c3ccccc32)cc1 (stereo unspecified)

>  <Discrete Label>
0

$$$$

* * *

Recorded measurements of TGI, one per entry
test system: HCT-116 colon; assay: NCI tumour cell line growth inhibition, 48 h
Reported Property: TGI

>  <Compound>
CCN(CC)c1ccc(C(=C2C=CC(=[N+](CC)CC)C=C2)c2ccccc2)cc1

>  <Observed>
0.127 µM

$$$$
>  <Compound>
COC1(OC)N=C(N)C2(C#N)/C(=N/N(C)C)CC(C)C12C#N (centres undefined)

>  <Observed>
> 100 µM

$$$$
>  <Compound>
C#Cc1ccc(-n2c(/C=C/c3cc(OC)c(OC)c(OC)c3)nc3ncccc3c2=O)cc1

>  <Observed>
> 100 µM

$$$$
>  <Compound>
CCOc1ccc(NC(=S)/N=C/C(C(=O)Nc2ccccc2C)=C(\C)O)cc1

>  <Observed>
> 100 µM

$$$$
>  <Compound>
C=C(CC1(CC(=C)c2ccc(C(=O)O)cc2)C(=O)N(C)C(=O)N(C)C1=O)c1ccc(C(=O)O)cc1

>  <Observed>
> 100 µM

$$$$
>  <Compound>
CCC1NCC(=O)c2c1[nH]c1ccccc21 (centres undefined)

>  <Observed>
> 100 µM

$$$$
>  <Compound>
O=C(Nc1ccccc1)N1N=C(c2ccccc2)C1c1ccccc1 (centres undefined)

>  <Observed>
44.8 µM

$$$$
>  <Compound>
COc1ccc(C=O)cc1Oc1ccc(C[C@H]2c3c(cc(OC)c4c3Oc3cc5c(cc3O4)CCN(C)C5=O)CCN2C)cc1

>  <Observed>
15 µM

$$$$
>  <Compound>
O=C1N2CCc3c([nH]c4ccccc34)C23CC2CCCC12S3 (centres undefined)

>  <Observed>
> 50 µM

$$$$
>  <Compound>
C/C(=C/CC[C@](C)(OC1OC(CO)C(O)C(O)C1O)[C@H]1CC[C@]2(C)[C@@H]1CC[C@@H]1[C@@]3(C)CC[C@H](O)C(C)(C)[C@@H]3C[C@H](O)[C@]12C)CO (some centres undefined)

>  <Observed>
42.7 µM

$$$$
>  <Compound>
CSc1nc(Br)nc2c1ncn2C1CC(Oc2ccc(C)cc2)C(COc2ccc(C)cc2)O1 (centres undefined)

>  <Observed>
> 100 µM

$$$$
>  <Compound>
CC(=O)Nc1ccc(-n2cnc3cc(-c4ccc(OCCN5CCCCC5)cc4)ccc32)cc1

>  <Observed>
1.3 µM

$$$$
>  <Compound>
C/C(=N\O)c1ccc(Nc2c3ccccc3nc3occc23)cc1

>  <Observed>
2.52 µM

$$$$
>  <Compound>
COc1ccc(-c2c(C(C)=O)c(C)n(C3OC(CO)C(O)C(O)C3O)c(=S)c2C#N)cc1 (centres undefined)

>  <Observed>
> 100 µM

$$$$
>  <Compound>
c1ccc(COc2ncccc2C2SCCCS2)cc1

>  <Observed>
> 100 µM

$$$$
>  <Compound>
CCOC(=O)Cc1csc(NC(=O)C(OC(=O)c2ccc(N)cc2)c2ccccc2)n1 (centres undefined)

>  <Observed>
> 100 µM

$$$$
>  <Compound>
Cn1c(=O)c2[nH]c(N/N=C3/SCC(=O)N3Cc3ccccc3)nc2n(C)c1=O

>  <Observed>
> 100 µM

$$$$
>  <Compound>
OCCCCC#Cc1ccccc1C#Cc1cnccn1

>  <Observed>
> 100 µM

$$$$
>  <Compound>
COc1cc(O)c2c(c1)C(O)C(O)CC1OC1C(=O)/C=C/CC(C)OC2=O (centres undefined)

>  <Observed>
12.2 µM

$$$$

* * *

test system: MCF7 breast; assay: NCI tumour cell line growth inhibition, 48 h; in the data active = GI50 below about 0.43 µM; inactive = the rest
Classes used: label 1 (active), label 0 (inactive)

>  <Molecule>
O=C(Nc1ccccc1)Nc1ccccc1CNc1nc(Nc2ccc(OCCN3CCCC3)cc2)ncc1Cl

>  <Discrete Label>
label 0

$$$$
>  <Molecule>
COc1cc(/C=C\c2cccnc2Nc2ccccc2)cc(OC)c1OC

>  <Discrete Label>
label 0

$$$$
>  <Molecule>
CCN(CC)CCOc1ccc(C2=C(c3ccccc3)CCc3cc(OC)ccc32)cc1

>  <Discrete Label>
label 0

$$$$
>  <Molecule>
OCCCCC#Cc1ccccc1C#Cc1cnccn1

>  <Discrete Label>
label 0

$$$$
>  <Molecule>
CCOC(=O)C1=C(c2ccccc2)N(Cc2ccccc2)C2(O)C=CC(=O)C3C(=O)N(c4ccccc4)C(=O)C132 (centres undefined)

>  <Discrete Label>
label 0

$$$$
>  <Molecule>
O=c1[nH]c(-c2ccccn2)nc2sc3c(c12)CCCCCC3

>  <Discrete Label>
label 0

$$$$
>  <Molecule>
Cc1csc(Nc2nc(-c3cccc(Cl)c3)nc(C(Cl)(Cl)Cl)n2)n1

>  <Discrete Label>
label 0

$$$$
>  <Molecule>
O=c1[nH]c2cc(O)ccc2n2cc3c(F)cccc3c12

>  <Discrete Label>
label 0

$$$$
>  <Molecule>
CC1(C)CC2(C)OC2C2(C1)N=NC(=Nc1ccccc1)O2 (centres undefined)

>  <Discrete Label>
label 0

$$$$
>  <Molecule>
CCCCCCN(CCCCCC)CC(O)c1cccc2ccc(Cl)cc12 (centres undefined)

>  <Discrete Label>
label 0

$$$$
>  <Molecule>
C=C(C)[C@@H]1CCC[C@]2(C(=O)O)CC[C@]3(C)[C@@H](CC[C@@H]4[C@@]5(C)C/C(=C/c6ccncc6)C(=O)C(C)(C)[C@@H]5CC[C@]43C)[C@@H]12

>  <Discrete Label>
label 0

$$$$
>  <Molecule>
COc1ccc(-n2nc(C)c3c2N(C)C2(C)C[C@@H]4C3(C)[C@@H]3CC4(C2)N(C)c2c(c(C)nn2-c2ccc(OC)cc2)[C@H]3C)cc1 (some centres undefined)

>  <Discrete Label>
label 0

$$$$
>  <Molecule>
C=C(CC1(CC(=C)c2ccc(C(=O)O)cc2)C(=O)N(C)C(=O)N(C)C1=O)c1ccc(C(=O)O)cc1

>  <Discrete Label>
label 0

$$$$
>  <Molecule>
CC[C@@]1(OC(=O)CN(C)C)C(=O)OCc2c1cc1n(c2=O)Cc2cc3ccccc3nc2-1

>  <Discrete Label>
label 1

$$$$
